experimental_details: Therapeutic index, ratio of LD50 for Wistar rat to antiarrhythmic ED50 for Wistar rat
Assay type: organism-based, Heart
study_conditions: in vivo, read-out: TI
recorded_metric: selectivity ratio
Answer with a number only.

// returns reported selectivity ratio for input CC(C)NCC(O)COc1cccc2[nH]ccc12 (stereo unspecified) [PINDOLOL]
37

---

System: Rattus norvegicus
experimental_details: Effect on heart rate in anaesthetized Wistar rat assessed as number of beats per minute at 1 mg/kg, iv after 5 mins by electrocardiography
Type: functional
recorded_metric: Activity (min⁻¹)
Return type: number; implicit unit min⁻¹.

>>> df
                                   compound  assay_value
0  COc1ccccc1OCCNCC(O)COc1cccc2[nH]c3ccccc3c12 (centres undefined)        340.3

State the recorded Activity for this entry: COc1ccccc1OCCNCC(O)COc1cccc2[nH]ccc12 (racemic)
294.5

Please report the recorded Activity for "COc1ccccc1OCCNC[C@@H](O)COc1cccc2[nH]ccc12" .
310.2

Which measured Activity value corresponds to "COc1ccccc1OCCNC[C@H](O)COc1cccc2[nH]ccc12" ?
291.3

---

Let's look at some compounds and their measured LD50.
experimental_details: Acute toxicity in iv dosed anaesthetized Wistar rat
Type: organism-based
study_conditions: in vivo
Your answer should be a plain number; it is taken to be in mg/kg.

See these solved cases before continuing.
                                   compound  assay_value
0  COc1ccccc1OCCNCC(O)COc1cccc2[nH]ccc12 (racemic)           20
1  COc1ccccc1OCCNC[C@H](O)COc1cccc2[nH]ccc12         36.2

Quick check: LD50 of "COc1ccccc1OCCNC[C@@H](O)COc1cccc2[nH]ccc12" ?
20.4

Param item = CC(C)NCC(O)COc1cccc2[nH]ccc12 (stereo not given) [PINDOLOL] ; retrieve measured LD50.
39

Which LD50 is listed for COc1ccccc1OCCNCC(O)COc1cccc2[nH]c3ccccc3c12 (stereo not given) [CARVEDILOL] ?
25
